targetSystem: Glycogen synthase kinase-3 beta (Homo sapiens, UniProt P49841)
Sequence (P49841 whole entry): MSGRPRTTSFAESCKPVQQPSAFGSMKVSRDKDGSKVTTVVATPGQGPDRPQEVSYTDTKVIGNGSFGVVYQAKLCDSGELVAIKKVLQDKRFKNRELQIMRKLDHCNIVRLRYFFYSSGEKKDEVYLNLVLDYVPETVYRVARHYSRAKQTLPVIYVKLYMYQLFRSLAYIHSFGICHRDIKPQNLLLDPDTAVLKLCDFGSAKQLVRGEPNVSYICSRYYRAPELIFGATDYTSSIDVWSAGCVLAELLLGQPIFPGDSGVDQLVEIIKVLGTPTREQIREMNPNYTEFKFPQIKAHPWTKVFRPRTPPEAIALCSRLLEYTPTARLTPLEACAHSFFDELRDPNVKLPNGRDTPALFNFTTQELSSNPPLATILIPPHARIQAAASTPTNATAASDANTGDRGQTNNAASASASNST
testProtocol: Inhibition of full-length recombinant human His-tagged GSK3B recombinant in baculovirus expression system using Alexa-Fluor tracer-236 incubated for 60 mins by TR-FRET based Lantha-screen Eu kinase assay
appliedConditions: read-out: IC50
endpointName: log10 IC50 (log10 of the value in µM)

structureAsSmiles	log10 IC50
c1cncc(-c2c[nH]c3cnccc23)c1	1.49
Nc1nccc(-c2c[nH]c3cc(C(F)(F)F)ccc23)n1	1.18
Clc1cnccc1-c1c[nH]c2cnccc12	0.98
c1cc(-c2c[nH]c3cnccc23)ccn1	0.97
Nc1nccc(-c2c[nH]c3c(Br)cccc23)n1	1.35
c1cc(-c2cn(CCCN3CCOCC3)c3cnccc23)ccn1	0.88
N#Cc1cccc2c(-c3ccnc(N)n3)c[nH]c12	0.71
Cn1cc(-c2ccncc2)c2ccncc21	0.68
Nc1nccc(-c2c[nH]c3ccccc23)n1	1.17
Nc1nccc(-c2c[nH]c3c([N+](=O)[O-])cccc23)n1	1.00
CC(C)n1cc(-c2ccncc2)c2ccncc21	-0.18
Fc1ccc(Cn2cc(-c3ccncc3)c3ccncc32)cc1	0.00
N#Cc1cccc2c(-c3ccnc(N)c3)c[nH]c12	1.14
